Test system: mouse intestinal organoids (enteroids)
Experiment: Mouse intestinal organoids' tolerance assay (alamarBlue)
Conditions: read-out: Citotoxicity CC50 (μM) Ent; mouse enteroid

- compound: "O=C(/C=C/c1ccccc1)c1ccccc1 [Trans-chalcone]"
  CC50: "> 50 µM"

* * *

Listing of recorded inhibition at 110 µM by entry.
Test system: C. elegans
Assay: microbe, parasite or virus in culture
Details: Caenorhabditis elegans, 24 h, read-out: Percentage of motility inhibition 24 h, Table S2, C. elegans SS assay, 110 μM, 24 h, averages of 4 data points
Counter-ions that a name gives are not always drawn.

- compound: "O=C(C[C@H]1NCCC[C@@H]1O)Cn1cnc2ccccc2c1=O"
  inhibition at 110 µM [%]: 0
- compound: "Nc1nc(=O)c2nc(CNc3ccc(C(=O)N[C@@H](CCC(=O)O)C(=O)O)cc3)cnc2[nH]1"
  inhibition at 110 µM [%]: 17
- compound: "Cc1cc(/C=C/C#N)cc(C)c1Nc1ccnc(Nc2ccc(C#N)cc2)n1"
  inhibition at 110 µM [%]: 20
- compound: "CCN(CCO)CCCC(C)Nc1ccnc2cc(Cl)ccc12 (centres unmarked) [Hydroxychloroquine sulfate]"
  inhibition at 110 µM [%]: 9
- compound: "C=C1C[C@@]23CC[C@H]4[C@@](C)(CCC[C@@]4(C)C(=O)O)[C@@H]2CC[C@]1(O)C3"
  inhibition at 110 µM [%]: 34
- compound: "O=C(O)CC(O)C(=O)O (centres unmarked)"
  inhibition at 110 µM [%]: 14
- compound: "O=C1C[C@@H](c2ccc(O)cc2)Oc2cc(O[C@@H]3O[C@H](CO)[C@@H](O)[C@H](O)[C@H]3O)cc(O)c21"
  inhibition at 110 µM [%]: 2
- compound: "CC(=O)O[C@@H]1C[C@H]2C(C)(C)C(=O)C=C[C@]2(C)[C@H]2CC[C@@]3(C)[C@H](c4ccoc4)C(=O)[C@H]4O[C@]43[C@@]21C"
  inhibition at 110 µM [%]: 47
- compound: "CC(C)C12CCC(C)(CC1)O2"
  inhibition at 110 µM [%]: 35
- compound: "O=c1cc(-c2ccccc2)oc2cc(O)c(O)c(O)c12"
  inhibition at 110 µM [%]: 12
- compound: "COc1ccc2c(c1OC)C(=O)O[C@@H]2[C@H]1c2cc3c(cc2CCN1C)OCO3 [Hydrastine]"
  inhibition at 110 µM [%]: 19
- compound: "COc1ccc2c(c1OC)CN(C)CCc1cc3c(cc1C(=O)C2)OCO3"
  inhibition at 110 µM [%]: 18
- compound: "COc1cc(-c2cc(=O)c3c(O)cc(O)cc3o2)cc(OC)c1O"
  inhibition at 110 µM [%]: 2
- compound: "O=C1NCN(c2ccccc2)C12CCN(CCCOc1ccc(F)cc1)CC2 [Spiramide]"
  inhibition at 110 µM [%]: 6
- compound: "CC(=O)N[C@H]1[C@H]([C@H](O)[C@H](O)CO)OC(C(=O)O)=C[C@@H]1N=C(N)N"
  inhibition at 110 µM [%]: 6
- compound: "C[C@H]1O[C@@H](O[C@H]2[C@@H](O)C[C@H](O[C@H]3[C@@H](O)C[C@H](O[C@H]4CC[C@@]5(C)[C@H](CC[C@@H]6[C@@H]5CC[C@]5(C)[C@@H](C7=CC(=O)OC7)CC[C@]65O)C4)O[C@@H]3C)O[C@@H]2C)C[C@H](O)[C@@H]1O"
  inhibition at 110 µM [%]: 3
- compound: "CC(C)(C)C(=O)OCOP(=O)(COCCn1cnc2c(N)ncnc21)OCOC(=O)C(C)(C)C"
  inhibition at 110 µM [%]: 14
- compound: "C=C[C@H]1CN2CC[C@@]3(C(=O)Nc4ccccc43)[C@@H]2C[C@@H]1/C(=C\\OC)C(=O)OC"
  inhibition at 110 µM [%]: 0
- compound: "COc1ccc(-c2cc(=O)c3c(O)c(OC)c(OC)cc3o2)cc1O"
  inhibition at 110 µM [%]: 26
- compound: "C=C1C(=O)[C@@]23[C@H](O)C[C@@H]4C(C)(C)C(=O)CC[C@@]4(C)[C@@H]2CC[C@@H]1[C@H]3O"
  inhibition at 110 µM [%]: 7
- compound: "O=c1cc(-c2ccc(O)cc2)oc2cc(O)cc(O)c12"
  inhibition at 110 µM [%]: 3
- compound: "CC(C)[C@H](N)C(=O)O"
  inhibition at 110 µM [%]: 12
- compound: "CC=CC(=O)N(CC)c1ccccc1C (mixture of isomers)"
  inhibition at 110 µM [%]: 24
- compound: "COc1ccc(CCC(=O)c2c(O)cc(O[C@@H]3O[C@H](CO)[C@@H](O)[C@H](O)[C@H]3O[C@@H]3O[C@@H](C)[C@H](O)[C@@H](O)[C@H]3O)cc2O)cc1O [Neohesperidin dihydrochalcone]"
  inhibition at 110 µM [%]: 2
- compound: "C[C@H]1O[C@@H](O[C@H]2CC[C@@]3(C)[C@H](CC[C@@H]4[C@@H]3C[C@@H](O)[C@]3(C)[C@@H](C5=CC(=O)OC5)CC[C@]43O)C2)C[C@H](O)[C@@H]1O[C@H]1C[C@H](O)[C@H](O[C@H]2C[C@H](O)[C@H](O[C@@H]3O[C@H](CO)[C@@H](O)[C@H](O)[C@H]3O)[C@@H](C)O2)[C@@H](C)O1 [Deslanoside]"
  inhibition at 110 µM [%]: 5
- compound: "CC(C)CC(C)c1sccc1NC(=O)c1cn(C)nc1C(F)(F)F (centres unmarked)"
  inhibition at 110 µM [%]: 18
- compound: "C=C(C)[C@H](C)c1cc(/C=C/C(=O)c2ccc(O)cc2)c(OC)cc1O"
  inhibition at 110 µM [%]: 0
- compound: "O=C(O)c1cccc2nc3ccccc3nc12"
  inhibition at 110 µM [%]: 11
- compound: "O=c1ccn([C@@H]2O[C@H](CO)[C@@H](O)[C@H]2O)c(=O)[nH]1"
  inhibition at 110 µM [%]: 10
- compound: "O=C[C@H](O)[C@@H](O)[C@H](O)CO"
  inhibition at 110 µM [%]: 11
- compound: "O=C(/C=C/c1ccc(O)cc1)c1ccccc1 [4‐Hydroxychalcone]"
  inhibition at 110 µM [%]: 1
- compound: "COc1nccnc1NS(=O)(=O)c1ccc(N)cc1"
  inhibition at 110 µM [%]: 15

* * *

Listing of recorded inhibition at 110 µM by entry.
Test system: C. elegans
Assay: microbe, parasite or virus in culture
Details: Caenorhabditis elegans, 0 h, read-out: Percentage of motility inhibition 0 h, Table S2, C. elegans SS assay, 110 μM, 0 h, averages of 4 data points

- molecule: "C=C1C[C@@]23CC[C@H]4[C@@](C)(CCC[C@@]4(C)C(=O)O[C@@H]4O[C@H](CO)[C@@H](O)[C@H](O)[C@H]4O)[C@@H]2CC[C@]1(O[C@@H]1O[C@H](CO)[C@@H](O)[C@H](O)[C@H]1O[C@@H]1O[C@H](CO)[C@@H](O)[C@H](O)[C@H]1O)C3 [Stevioside]"
  unit: "%"
  inhibition at 110 µM: 15
- molecule: "CC(=O)Oc1cccc2c1C(=O)c1c(OC(C)=O)cc(C(=O)O)cc1C2=O"
  unit: "%"
  inhibition at 110 µM: 0
- molecule: "Cc1ncc(CO)c(CO)c1O"
  unit: "%"
  inhibition at 110 µM: 8

* * *

Test system: C. elegans
Assay: microbe, parasite or virus in culture
Details: Caenorhabditis elegans, 24 h, read-out: Percentage of motility inhibition 24 h, Table S2, C. elegans SS assay, 110 μM, 24 h, averages of 4 data points

- smiles record: "C[C@@H]1CC[C@@]2(NC1)O[C@H]1C[C@H]3[C@@H]4CC=C5C[C@@H](O)CC[C@]5(C)[C@H]4CC[C@]3(C)[C@H]1[C@@H]2C"
  inhibition at 110 µM (%): 20
- smiles record: "CC(C)=CCc1cc2c(cc1O)O[C@H](c1ccc(O)cc1)CC2=O"
  inhibition at 110 µM (%): 24
- smiles record: "COc1cc2c(cc1Cc1cccc(Cl)c1F)c(=O)c(C(=O)O)cn2[C@H](CO)C(C)C"
  inhibition at 110 µM (%): 48
- smiles record: "Cc1ncc([N+](=O)[O-])n1CCO"
  inhibition at 110 µM (%): 14
- smiles record: "C[C@@H]1O[C@@H](O[C@H]2[C@H](O[C@H]3CC[C@]4(C)[C@H]5CC=C6[C@@H]7CC(C)(C)CC[C@]7(C(=O)O[C@@H]7O[C@H](CO[C@@H]8O[C@H](CO)[C@@H](O[C@@H]9O[C@@H](C)[C@H](O)[C@@H](O)[C@H]9O)[C@H](O)[C@H]8O)[C@@H](O)[C@H](O)[C@H]7O)CC[C@@]6(C)[C@]5(C)CC[C@H]4C3(C)C)OC[C@H](O)[C@@H]2O)[C@H](O)[C@H](O)[C@H]1O"
  inhibition at 110 µM (%): 3
- smiles record: "CO[C@H]1/C=C/O[C@@]2(C)Oc3c(C)c(O)c4c(O)c(c5c(nc6cc(C)ccn65)c4c3C2=O)NC(=O)/C(C)=C\\C=C\\[C@H](C)[C@H](O)[C@@H](C)[C@@H](O)[C@@H](C)[C@H](OC(C)=O)[C@@H]1C"
  inhibition at 110 µM (%): 1
